The molecules listed here are annotated with their inhibition at 20 µM.
target: KRas G12D mutant (Homo sapiens, UniProt P01116, G12D); construct: made in house; assay: Ras GTP binding domain inhibition assay (labeled-GTP competition, cell-free); details: with SOS, read-out: KRas G12D mutant + SOS: % inh.

// known answers, use as guide
Cn1ccc(-c2nc(O)c3scc(-c4ccccn4)c3n2)n1; 1 to 25%
O=C(c1nc(O)c2scc(-c3ccccn3)c2n1)N1CCOCC1; 0%

Return reported inhibition at 20 µM; argument: CO[C@H]1CC[C@@H](Nc2nc(-c3nccn3C)nc3sc(-c4cc[nH]n4)c(-c4ccccc4)c23)C1 (racemic)
0%

Return reported inhibition at 20 µM; argument: `CCOCCn1ccnc1-c1nc(O)c2scc(-c3ccccn3)c2n1`
76 to 100%

----------
biological target: Rho-A (Homo sapiens); assay: Ras GTP binding domain inhibition assay (labeled-GTP competition, cell-free); set-up: made in house; conditions: without SOS, read-out: Rho-A: % inh.
The compounds listed here are annotated with their inhibition at 20 µM.

// known answers, use as guide
COCCCn1ccnc1-c1nc(O)c2scc(-c3ccccn3)c2n1 [Compound 79]; 76 to 100%
Cc1c(-c2ccn(C(C)C)n2)sc2nc(-c3nccn3C)nc(NCc3c[nH]cn3)c12 [Compound 59]; 51 to 75%
COCCn1ccnc1-c1nc(N[C@@H]2CC[C@H](OC)C2)c2ccsc2n1 (racemic) [Compound 8]; 76 to 100%
Cc1c(-c2ccn(C(C)C)n2)sc2nc(-c3nccn3C)nc(NC3CCOC3)c12 (racemic) [Compound 37]; 76 to 100%
CO[C@@H]1CCCN(c2nc(-c3nccn3C)nc3sc(-c4ccn(C(C)C)n4)c(C)c23)C1 [Compound 50]; 76 to 100%

Any idea what inhibition at 20 µM came out for CO[C@H]1CC[C@@H](Nc2nc(C(=O)Nc3ccccc3)nc3sccc23)C1 (racemic) [Compound 15] on Rho-A (Homo sapiens)?
0%

Any idea what inhibition at 20 µM came out for Oc1nc(-c2nccn2CCOCc2ccccc2)nc2c(-c3ccccn3)csc12 [Compound 83] on Rho-A (Homo sapiens)?
51 to 75%

Any idea what inhibition at 20 µM came out for CO[C@H]1CC[C@@H](Nc2nc(-c3nccn3C)nc3sc(-c4ccn(C(C)C)n4)c(C(F)(F)F)c23)C1 (racemic) [Compound 73] on Rho-A (Homo sapiens)?
51 to 75%

----------
The compounds listed here are annotated with their inhibition at 20 µM.
target: Rac-1 (Homo sapiens); assay: Ras GTP binding domain inhibition assay (labeled-GTP competition, cell-free); parameters: made in house; settings: with SOS, read-out: Rac-1 + SOS: % inh.

CO[C@H]1C[C@@H](Nc2nc(-c3nccn3C)nc3sc(-c4ccn(C(C)C)n4)c(C)c23)C1 [Compound 96]; 1 to 25%
COC1CCCN(c2nc(-c3nccn3C)nc3sc(-c4ccn(C(C)C)n4)c(C)c23)C1 (racemic) [Compound 40]; 51 to 75%

Return reported inhibition at 20 µM; argument: CO[C@H]1CC[C@@H](Nc2nc(-c3ccccn3)nc3sc(-c4ccn(C(C)C)n4)c(C)c23)C1 (racemic) [Compound 69]
26 to 50%

Return reported inhibition at 20 µM; argument: CO[C@H]1CC[C@@H](Nc2nc(C(N)=O)nc3sc(-c4ccn(C(C)C)n4)cc23)C1 (racemic) [Compound 17]
1 to 25%

Return reported inhibition at 20 µM; argument: CO[C@H]1C[C@@H](Nc2nc(-c3nccn3C)nc3sc(-c4cn(C)cn4)c(-c4ccccc4)c23)C1 [Example 2]
51 to 75%

Return reported inhibition at 20 µM; argument: CO[C@H]1CC[C@@H](Nc2nc(C(=O)NC(C)C)nc3sccc23)C1 (racemic) [Compound 13]
0%

Return reported inhibition at 20 µM; argument: CO[C@H]1CC[C@@H](Nc2nc(C(=O)N3CCCC3)nc3sccc23)C1 (racemic) [Compound 25]
0%

----------
molecular target: UniProt P01116; assay: Ras GTP binding domain inhibition assay (labeled-GTP competition, cell-free); design: made in house; settings: without SOS, read-out: KRas wild type: % inh.
endpoint label: inhibition at 20 µM

COCCNC(=O)c1nc(O)c2scc(-c3ccccn3)c2n1 [Compound 21]; 26 to 50%
Cc1c(-c2ccn(C(C)C)n2)sc2nc(-c3nccn3C)nc(NC[C@H]3CCC(=O)N3)c12 [Compound 52]; 51 to 75%

Any idea what inhibition at 20 µM came out for COCC1COCCN1c1nc(-c2nccn2C)nc2sc(-c3ccn(C(C)C)n3)c(C)c12 (racemic) [Compound 41] on UniProt P01116?
51 to 75%

Any idea what inhibition at 20 µM came out for COC[C@@H]1CC[C@@H]1CNc1nc(-c2nccn2C)nc2sc(-c3ccn(C(C)C)n3)c(C)c12 (racemic) [Compound 63] on UniProt P01116?
51 to 75%

Any idea what inhibition at 20 µM came out for COC1CCCN(c2nc(-c3nccn3C)nc3sc(-c4ccn(C(C)C)n4)c(C)c23)C1 (racemic) [Compound 40] on UniProt P01116?
76 to 100%

Any idea what inhibition at 20 µM came out for COCC1CCN(c2nc(-c3nccn3C)nc3sc(-c4ccn(C(C)C)n4)c(-c4ccccc4)c23)C1 (racemic) [Compound 76] on UniProt P01116?
51 to 75%

Any idea what inhibition at 20 µM came out for CO[C@H]1CC[C@@H](Nc2nc(-c3nccn3C)nc3sc(-c4cc[nH]n4)c(-c4ccccc4)c23)C1 (racemic) [Example 1] on UniProt P01116?
0%

Any idea what inhibition at 20 µM came out for COCCn1ccnc1-c1nc(N[C@H]2C[C@@H](OC)C2)c2ccsc2n1 [Compound 9] on UniProt P01116?
76 to 100%

Any idea what inhibition at 20 µM came out for Cc1c(-c2ccn(C(C)C)n2)sc2nc(-c3nccn3C)nc(NCCc3cn(C)cn3)c12 [Compound 58] on UniProt P01116?
76 to 100%

Any idea what inhibition at 20 µM came out for Cc1c(-c2ccn(C(C)C)n2)sc2nc(-c3nccn3C)nc(NCc3n[nH]c(=O)n3C)c12 [Compound 60] on UniProt P01116?
51 to 75%

Any idea what inhibition at 20 µM came out for Cc1cnc(-c2nc(O)c3scc(-c4ccccn4)c3n2)s1 [Compound 92] on UniProt P01116?
51 to 75%

----------
biological target: KRas G12D mutant (Homo sapiens, UniProt P01116, G12D); construct: made in house; experiment: Ras GTP binding domain inhibition assay (labeled-GTP competition, cell-free); conditions: with SOS, read-out: KRas G12D mutant + SOS: % inh.
The compounds listed here are annotated with their inhibition at 20 µM.

CO[C@H]1CC(Nc2nc(-c3nccn3C)nc3sc(-c4ccn(C(C)C)n4)c(C)c23)C[C@@H]1OC (racemic); 76 to 100%

Return reported inhibition at 20 µM; argument: `O=C(c1nc(O)c2scc(-c3ccccn3)c2n1)N1CCCC1`
1 to 25%

Return reported inhibition at 20 µM; argument: `COc1cc(Nc2nc(-c3nccn3C)nc3sc(-c4ccn(C(C)C)n4)c(C)c23)ccn1`
51 to 75%

----------
The molecules listed here are annotated with their inhibition at 20 µM.
biological target: KRas Q61H mutant (Homo sapiens, UniProt P01116, Q61H); construct: made in house; test: Ras GTP binding domain inhibition assay (labeled-GTP competition, cell-free); conditions: at 20 μM, without SOS; read-out: KRas Q61H mutant: % inh.

CO[C@H]1CC[C@@H](Nc2nc(-c3nccn3C)nc3sc(-c4ccn(C(C)C)n4)c(C)c23)CC1 [Compound 55]; 1 to 25%
COc1cc(Nc2nc(-c3nccn3C)nc3sc(-c4ccn(C(C)C)n4)c(C)c23)ccn1 [Compound 67]; 51 to 75%
Cc1c(-c2ccn(C(C)C)n2)sc2nc(-c3nccn3C)nc(N3CCC(COC(C)C)C3)c12 (racemic) [Compound 62]; 76 to 100%
Oc1nc(-c2cccnc2)nc2c(-c3ccccn3)csc12 [Compound 89]; 1 to 25%
Cc1c(-c2ccn(C(C)C)n2)sc2nc(-c3nccn3C)nc(NCCc3ncc[nH]3)c12 [Compound 53]; 26 to 50%

Continue with the next molecule.
Any idea what inhibition at 20 µM came out for CO[C@H]1C[C@@H](Nc2nc(-c3nccn3C)nc3sc(-c4cn(C)cn4)c(-c4ccccc4)c23)C1 [Example 2] on KRas Q61H mutant (Homo sapiens, UniProt P01116, Q61H)?
51 to 75%

----------
system: Akt phosphorylation in Panc-1 cells; test: Western AKT cell-based phosphorylation assay; parameters: species or system human; details: at 10 μM, values in brackets < > are activation %, not inhibition
endpoint label: % inh of AKT phosphorylation in PANC-1

Cc1c(-c2ccn(C(C)C)n2)sc2nc(-c3nccn3C)nc(N3CCC(COC(C)C)C3)c12 (racemic) [Compound 62]; B (26-50% inhibition)
CO[C@H]1C[C@H](Nc2nc(-c3nccn3C)nc3sc(-c4ccn(C(C)C)n4)c(C)c23)C[C@H]1OC [Compound 43]; <D>
Cc1c(-c2ccn(C(C)C)n2)sc2nc(-c3nccn3C)nc(NCc3n[nH]c(=O)n3C)c12 [Compound 60]; 0 (0% inhibition)
Cc1c(-c2ccn(C(C)C)n2)sc2nc(-c3ccccn3)nc(N3CCC(COC(C)C)C3)c12 (stereo not shown) [Compound 72]; B (26-50% inhibition)

// provenance: patent US20230227466A1
